test system: LNA (2′-O,4-C-methylene); experiment: Epitope mapping solid phase immunoassay (ELISA); type: binding; conditions: signal-to-noise (S/N) class
Measure Name: Reactivity to LNA (2′-O,4-C-methylene)

[[record]]
molecule = "clone 1.4.10: anti-LNA monoclonal hybridoma antibody, VH SEQ ID NO: 65, VL SEQ ID NO: 73 (antibody, listed as Mus musculus, V domains shown) VH: QIQLRESGPGLVAPSQSLSITCTVSGFSLVNYGIHWVRQPPGKGLEWLGVIWAGGSTIYNSALMSRLSISRDNSKNQVFLEMNSLQTYDTAMYYCARDRPFDGFFFSYWGQGTALTVSS VL: DVLMTQTPLSLPVSLGDQASISCRSSQAIVHRSGNTFLEWYLQKPGQSPKLLIYKVSNRFSGVPDRFSGSGSGTDFTLKINRVEAEDLGVYYCFQGSHVPYTFGSGTKLEIK"
result = "− (−: S/N <2)"

[[record]]
molecule = "clone 1.2.8: anti-LNA monoclonal hybridoma antibody, VH SEQ ID NO: 30, VL SEQ ID NO: 39 (antibody, listed as Mus musculus, V domains shown) VH: QIQLRESGPGLVAPSQSLSITCTVSGFSLTNYGVHWVRQPPGKGLEWLGVIWAGGSTIYNSALMSRLSISRDNSKSQVFLEMNSLQTYDTAMYYCARDRPFDGFFFSYWGQGTALTVSS VL: DVLMTQTPLSLPVSLGDQASISCRSSQAIVHRSGNTFLEWYLQKPGQSPKLLIYKVSNRFSGVPDRFSGSGSGTDFTLKINRVEAEDLGVYYCFQGSHVPYTFGSGTKLEIK"
result = "− (−: S/N <2)"

